// data source = PubChem BioAssay (NCI)

# Tested on: OVCAR-5 ovarian
# Test name: NCI-60 one-dose screen, 48 h (100 = growth as untreated, 0 = no growth, -100 = all killed)
# Condition description: 10 µM unless noted
Compounds without any hit were thinned out: in the full panel of roughly 83,000, 20% have a hit. Activity calls are given as the source filed them. How the source made its calls: active means growth percent below 10; inactive means the rest.
Field: growth. Provide a value for each of the compounds that follow.

# example entries with known answers
* CCOC(=O)c1c(C)nc2c(c1N)CC(=O)N2Cc1cc(OC)c(OC)c(OC)c1 | 93% (inactive)
* O=C1Nc2ccc(F)cc2/C1=N/c1nnc(Sc2ccccc2)s1 | 113% (inactive)
* COc1cc(/C=C2\CN(S(=O)(=O)c3ccc(C)cc3)C/C(=C\c3cc(CN4CCCCC4)c(O)c(OC)c3)C2=O)cc(CN2CCCCC2)c1O | -86.5% (active)
* CC(C)(CO)N(CCO)CCO | 93.1% (inactive)
* O=C1Nc2ccccc2C2c3cccn3-c3ccccc3N12 (stereo not drawn) | 96.6% (inactive)
* CCNC(=O)Oc1ccc(/C(=C(/C)Cc2ccc(OC)cc2)c2ccc(OCCN3CCCCCC3)cc2)cc1 | 94.8% (inactive)
* Nc1c(C(=O)Nc2ccncc2)sc2nc3c(cc12)CCCCC3 | 83.4% (inactive)
* C=C1C(=O)O[C@H]2[C@H]1CC/C(Cn1cc(-c3cc(C(F)(F)F)cc(C(F)(F)F)c3)nn1)=C\CC[C@@]1(C)O[C@@H]21 | -69.4% (active)
* COC(=O)C1=C(C)NC(C)=C(C(=O)OCC(C)C)C1c1ccccc1[N+](=O)[O-] (stereo not drawn) | 98.7% (inactive)
* NNC(=S)N/N=C/c1ccccn1 | 40.3% (inactive)

Answer for every listed entry: what is its growth? The entries follow.
1. COc1cc(-c2nc(SCCC(C)C)nc(N3CCOCC3)c2C#N)cc(OC)c1OC
2. COc1ccc(NC(=O)c2cccc(C3CCc4c(cc(OC)c(OC)c4OC)O3)c2)cc1 (stereo not drawn)
3. C=C(c1ccc(C(=O)O)cn1)c1cc2c(cc1C)C(C)(C)CCC2(C)C
4. O=c1nc(Nc2nc3ccccc3s2)[nH]c(=O)c2ccccc12
5. Clc1ccc(-c2cn3ccsc3n2)c(Cl)c1Cl

1: 102% (inactive); 2: 64.8% (inactive); 3: 121% (inactive); 4: 107% (inactive); 5: 88.5% (inactive)

Answer for every listed entry: what is its growth? The entries follow.
1. Cc1[nH]c(C(=O)Nc2ccc(C(N)=O)cc2NC(C)C)c(Cl)c1Cl
2. CC(C)CN1CC(C(=O)Nc2ccc3c(c2)-c2ccccc2C3)CC1=O (stereo not drawn)
3. COc1cccc(OC)c1Oc1c(-c2nc3ccccc3s2)c(C)nn1-c1ccccc1

104% (inactive)
69.8% [50 µM] (inactive)
73.8% (inactive)

* * *

# System: A498 renal
# Test name: NCI-60 one-dose screen, 48 h
# Condition description: 10 µM unless noted
About 83,000 compounds went through this panel and 20% of them were active in at least one assay; those are over-represented in the sample as a whole. Calls of active or inactive are those of the source. How the source made its calls: active means growth percent below 10; inactive means the rest.
Outcome field: choose from active, inactive

- OC(c1ccccc1)(c1ccccc1)c1ccccc1-c1ccccc1: inactive
- Cn1cc(-c2nc(-c3c[nH]c4ccncc34)cs2)c2cc(Br)ccc21: active
- O=[N+]([O-])/C(=C\c1ccco1)c1ccccc1Cl: inactive

As a next step, examine the molecule that follows.
Look up the recorded call for Cn1cc(-c2ccc3cc(-c4ccc(CC(=O)Nc5cc(C(C)(C)C)on5)cc4)cnc3c2)cn1 in this test.
active

* * *

# Tested on: OVCAR-5 ovarian
# Test name: NCI-60 one-dose screen, 48 h
# Condition description: 10 µM unless noted
This is part of a sample that, as a whole, favours compounds with a hit. Of some 83,000 tested, about 20% had one in any assay. Activity calls are given as the source filed them. The calls were made as follows: active = growth percent below 10; inactive = the rest.
Outcome field: choose from active, inactive

• CCOC(=O)c1cn2ncnc(Oc3ccc(NC(=O)NC4CC4)c(F)c3)c2c1C = inactive
• C[Se]C(=O)CC1=C2C=C(F)C=CC2/C(=C\c2ccc(S(C)=O)cc2)C1C (stereo not given) = inactive
• CC1COCC(C)N1C1=C(Cl)C(=O)c2ccccc2C1=O (stereo not given) = inactive

Look up the recorded call for COc1ccc(-c2cc(C(=O)N3N=C(c4ccc(N)cc4)CC3c3ccccc3)c3ccccc3n2)cc1 (stereo not given) in this test.
inactive

Look up the recorded call for CN(CCC#N)c1ccc(/C=C2\NC(=O)NC2=O)cc1 in this test.
inactive

Look up the recorded call for CN(C)Cc1ccc(C(=O)Nc2ccc3ncnc(Nc4ccc(Oc5cccc(F)c5)c(Cl)c4)c3c2)cc1 in this test.
active

Look up the recorded call for CCOC(=O)c1c(NC(=O)c2ccc(C(C)(C)C)cc2)sc2cc(O)ccc12 in this test.
inactive

Look up the recorded call for COc1ccc(Nc2ncccc2NC(=O)c2cn(Cc3cccc(Oc4ccccc4)c3)nn2)cc1OC in this test.
inactive

Look up the recorded call for CN1CCCc2cc(/C=C3/SC(=S)N(CCc4ccc(O)cc4)C3=O)ccc21 in this test.
inactive

Look up the recorded call for CC1=C(C(=O)n2c3ccccc3c3ccccc32)C(c2cccc([N+](=O)[O-])c2)C(C(=O)n2c3ccccc3c3ccccc32)=C(C)N1 in this test.
inactive

* * *

# Tested on: NCI-H460 lung
# Test name: NCI-60 one-dose screen, 48 h
# Condition description: 10 µM unless noted
The panel holds about 83,000 compounds, 20% with a hit somewhere; the sample as a whole holds those more often. Active and inactive are the calls of the source. Rule for the calls: active = growth percent below 10; inactive = the rest.
Outcome field: choose from active, inactive

* O=C(CSc1nc2ccc([N+](=O)[O-])cc2[nH]1)Nc1cccc([N+](=O)[O-])c1 | inactive

As a next step, examine the compound that follows.
Look up the recorded call for CCn1cc(C2=C(c3cn(C)c4ncccc34)C(=O)NC2=O)c2cccnc21 in this test.
inactive

* * *

# Test system: SF-295 CNS
# Test name: NCI-60 one-dose screen, 48 h
# Condition description: 10 µM unless noted
Compounds without any hit were thinned out: in the full panel of roughly 83,000, 20% have a hit. Active and inactive are the calls of the source. The calls were made as follows: active = growth percent below 10; inactive = the rest.
Outcome field: choose from Yes = active, No = inactive

• CCOC(=O)c1c(-c2ccc(Cl)cc2)c(C#N)c2c(C#N)c(N)nn2c1N = No

Look up the recorded call for Cc1ccc(C)c(-n2c(-c3ccc(Br)cc3)csc2=NC(=O)c2ccccc2F)c1 in this test.
No

Look up the recorded call for O=C1CCC(C(=O)NN(c2ccccc2)c2ccccc2)N1 (stereo unspecified) in this test.
No

Look up the recorded call for CCCCCCC(CCCC)COC(=O)c1ccc(Cl)cc1 (stereo unspecified) in this test.
No

Look up the recorded call for Cn1ncc2ccc(-c3nc(-c4ccccc4)[nH]c3-c3n[nH]c(=O)n3C3CC3)cc21 in this test.
No

Look up the recorded call for CN(C)Cc1ccc(C(=O)Nc2ccc3ncnc(Nc4ccc(Oc5cccc(F)c5)c(Cl)c4)c3c2)cc1 in this test.
Yes

Look up the recorded call for CN(CCC#N)c1ccc(/C=C2\NC(=O)NC2=O)cc1 in this test.
No

Look up the recorded call for C#CC#CC#CC#CC#CC#CC#CC#CC[C@H]1OC[C@@H](COC(=O)O[C@@H](C(=O)O[C@H]2C[C@@]3(O)[C@@H](OC(=O)c4ccccc4)[C@@H]4[C@]5(OC(C)=O)CO[C@@H]5C[C@H](O)[C@@]4(C)C(=O)[C@H](OC(C)=O)C(=C2C)C3(C)C)[C@@H](NC(=O)c2ccccc2)c2ccccc2)O1 in this test.
No

* * *

# System: HOP-62 NSCLC
# Test name: NCI-60 one-dose screen, 48 h (100 = growth as untreated, 0 = no growth, -100 = all killed)
# Condition description: 10 µM unless noted
Compounds without any hit were thinned out: in the full panel of roughly 83,000, 20% have a hit.
growth vs 60%: less than gives Condition met; not less than gives Condition not met.

Answered cases to consult:
* CS(=O)(=O)Nc1cncc(-c2ccc3ncnc(Nc4ccc(F)c(Cl)c4)c3c2)c1 | Condition met
* C=C(CN1CC=CCC1)[C@@H]1CC[C@]2(CO)CC[C@]3(C)[C@H](CC[C@@H]4[C@@]5(C)CC[C@H](O)C(C)(C)[C@@H]5CC[C@]43C)[C@@H]12 | Condition not met

Answer whether the compound COc1cc(/C=N/Nc2ccccc2F)cc(OC)c1OC has growth strictly less than 60%
Condition not met

Answer whether the compound COCC[C@H]1CCC/C=C/[C@@H]2C[C@H](O)C[C@H]2[C@H](O)/C=C/C(=O)O1 has growth strictly less than 60%
Condition met

Answer whether the compound CC1(C)CC2=C3C=C[C@@H]4[C@@]5(C)CC[C@H](O)C(C)(C)[C@@H]5CC[C@@]4(C)[C@]3(C)CC[C@@]2(C(=O)O)CC1=O has growth strictly less than 60%
Condition met

Answer whether the compound CCOC(=O)C1CCN(c2ccc(N3C[C@@H](CNCc4ccc(C(=N)N)cc4)OC3=O)cc2)CC1 has growth strictly less than 60%
Condition not met

Answer whether the compound COc1ccc(C/C(C)=C(/c2ccc(OCCN3CCCCCC3)cc2)c2ccc(OC(=O)NCc3ccccc3)cc2)cc1 has growth strictly less than 60%
Condition not met

Answer whether the compound CCCCCCCC/C=C\CCCCCCCCOc1ccccc1CC(=O)NCC[N+]1(C)CCCCC1 has growth strictly less than 60%
Condition not met

Answer whether the compound COc1cccc(NC(=O)c2cccc(C3CCc4c(cc(OC)c(OC)c4OC)O3)c2)c1 (stereo unspecified) has growth strictly less than 60%
Condition not met

Answer whether the compound COc1cc2c(/C=C3\C(=O)Nc4ccccc43)c(C(=O)O)[nH]c2cc1C has growth strictly less than 60%
Condition not met
